Here we list compounds with their recorded IC50 when tested on Bcl-2-like protein 10 (Homo sapiens) (UniProt Q9HD36).
Sequence (Q9HD36 whole entry, looked up): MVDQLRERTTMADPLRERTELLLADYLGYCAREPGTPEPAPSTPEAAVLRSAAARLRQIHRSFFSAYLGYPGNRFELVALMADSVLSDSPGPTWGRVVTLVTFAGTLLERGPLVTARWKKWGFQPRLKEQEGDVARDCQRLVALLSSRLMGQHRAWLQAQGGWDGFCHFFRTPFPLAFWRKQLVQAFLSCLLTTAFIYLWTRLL

Query: Look up IC50: O=C1NC(=O)C2(Cc3c(nc4ccccn4c3=O)N3CCCCCC32)C(=O)N1Cc1ccccc1 (centres undefined)
Result: 1.16 µM

Query: Look up IC50: `Cc1ccc(C=NNC(=O)CSc2nnc(-c3ccc(Cl)cc3)n2-c2ccccc2)o1`
Result: 8.58 µM

Query: Look up IC50: `O=c1c2c(n3nnnc3n1Cc1ccccc1)-c1ccccc1CC21CCCC1`
Result: 1.13 µM

Query: Look up IC50: `O=C1C(Cl)=C(N2CCN(c3ccccc3[N+](=O)[O-])CC2)C(=O)c2ccccc21`
Result: 3.99 µM
